tested on: SR; test: NCI tumour cell line growth inhibition, 48 h
Activity calls are given as the source filed them. No stated cut-off is given here; in the data, active = GI50 up to about 1.1 µM and inactive = higher.
Outcome (select one): class 1 = active, class 0 = inactive

Call for entry Cc1c(F)c(N)c2c(=O)cc(-c3ccc(NC(=O)C(N)CCCNC(=N)N)c(F)c3)oc2c1F (centres undefined) : class 0

Dear all, I need the recorded test outcome for Oc1cc(-c2cccc(C(F)(F)F)c2)nc2cc3c(cc12)OCO3 , thank you. class 1

Hi team, can someone confirm the assay call for FC(F)(F)c1nc2ccc(SSc3ccc4nc(C(F)(F)F)[nH]c4c3)cc2[nH]1 ? class 0

Fill in: this test's call for COC(=O)/C=C/c1ccc2c(c1)[C@H](C(=O)OC)[C@@H](c1ccc(O)cc1)O2 is ___ class 0

Now for a further molecule.
Any idea what this test logged for C/C(=N/NC(=O)C[N+](C)(C)C)C(CN(C)C)C(=O)Nc1ccccc1 (centres undefined) ? class 0

###

test system: SR; experiment: NCI tumour cell line growth inhibition, 48 h
Active and inactive are the calls of the source. Cut-off read from the data, not from the text of the source: active = GI50 up to about 1.1 µM and inactive = higher.
Entry note: the call must match one of active, inactive

How did this test come out for NC(=S)N/N=C(\C(=O)Nc1ccc(Cl)c(Cl)c1)C1=NN(c2ccccc2)C(c2cccc([N+](=O)[O-])c2)CC1=O (stereo not given) ? inactive

Please examine the following record next.
What classification did COc1ccc2nc(N/N=C/C(C)=N/Nc3cc(C)c4cc(OC)ccc4n3)cc(C)c2c1 end up with in this test? inactive

###

Measured GI50, listed per entry.
tested on: KM12; assay: NCI tumour cell line growth inhibition, 48 h
Calls of active or inactive are those of the source. Rule as the data show it: active = GI50 up to about 1.1 µM and inactive = higher.

Here are 3 compounds together with their reported answers.
State its GI50: CC(C)C(/C=C/c1ccccc1)=N\NC(=O)N/N=C(/C=C/c1ccccc1)C(C)C 36.3 µM (inactive)

Please report the measured GI50 for CCO/C=N/NC(=O)CSc1nc2ccc(I)cc2c(=O)n1Cc1ccccc1 46.9 µM (inactive)

Name the recorded GI50 of the item CCNc1nc(N)c(C(=O)c2cccs2)s1 in your answer. 11.8 µM (inactive)

Others:
Retrieve GI50 measured for N#CC(C(=O)C(N)=O)c1ccccc1Cl (stereo not given) and print it. > 100 µM (inactive)

Fill in reported GI50 for this entry: Cc1cc(N(CCC#N)CCC#N)ccc1/C=C1N=C(/C=C\c2ccccc2)N(NC(=O)CC(=O)Nc2ccccc2Cl)C\1=O > 100 µM (inactive)

Supply GI50 value. Item: COC(=O)c1cc2c(cc1CC1Cc3cc4c(cc3C1)CCC4)CCC2 68.7 µM (inactive)

###

system: T47D; test: NCI tumour cell line growth inhibition, 48 h
Active and inactive are the calls of the source. Rule as the data show it: active = GI50 up to about 1.1 µM and inactive = higher.
# valid calls are active, inactive; nothing else

Recorded results for 5 molecules are shown here.
For this molecule, state the assay outcome: Cc1cccc(/C=N/NC(=S)N2CCCC2)n1 active

Hi, do you know how CCCCCc1c(CCCC)c(=O)[nH]c2cc(CNCC(OC)OC)ccc12 came out in this test? inactive

Tell me the assay call for O=C(O)c1ccccc1CC1Cc2ccccc2C1 please. inactive

Test call, this molecule: COC1/C=C\OC2(C)Oc3c(C)c(O)c4c(O)c(c(/C=N\OCCCc5ccccc5)c(O)c4c3C2=O)NC(=O)/C(C)=C\C=C/C(C)C(O)C(C)C(O)C(C)C(OC(C)=O)C1C (stereo unspecified) inactive

Could you please tell me the result logged for CCc1nc(N)nc(N)c1-c1ccc(Cl)c([N+](=O)[O-])c1 in this assay? inactive

Kindly consider the entry below.
Please indicate how the test categorized CCOC(=O)NC(N(C)C(C(C)C)P(=O)(OCC)OCC)(C(F)(F)F)C(F)(F)F (stereo unspecified) . inactive

Origin of values: ChEMBL document CHEMBL1201862
